All figures here come from patent US10106762B2.

- protocol-description: Optical density of dye solution
- Assay type: physicochemical
- condition: 200 ppb solution in water at 10 cm; extrapolated from measurement in ethanol solutions at higher levels
measurement-type: OD 10 cm

In the examples that follow, each entry is paired with its recorded OD 10 cm.
* CCN(CCO)c1ccc(/N=N/c2ccc([N+](=O)[O-])cc2)cc1 | 0.023
* COc1cc(/N=N/c2c(Br)cc([N+](=O)[O-])cc2[N+](=O)[O-])c(NC(C)=O)cc1N(CCOC(C)=O)CCOC(C)=O | 0.048

A: CN=C1C=CC(=C(c2ccc(N(C)C)cc2)c2ccc(N(C)C)cc2)C=C1
B: CCN(CC)c1ccc(/N=N/c2c(C#N)cc([N+](=O)[O-])cc2C#N)c(NC(C)=O)c1
C: CC1(C)Nc2cccc3c(/N=N/c4ccc(/N=N/c5ccccc5)c5ccccc45)ccc(c23)N1
Provide the items ranked by increasing OD 10 cm. Please respond by ranking the labels in the order requested.
B, C, A

---

- protocol-description: LogP of dye
- Format: physicochemical
measurement-type: logP

A: CC1(C)Nc2cccc3c(/N=N/c4ccc(/N=N/c5ccccc5)c5ccccc45)ccc(c23)N1
B: CCN(CCO)c1ccc(/N=N/c2ccc([N+](=O)[O-])cc2)cc1
Pick the one with the larger logP: A vs B Please respond with the label that marks your chosen entry.
A
(A: 8.5, B: 4)

---

- protocol-description: LogP of dye
- Type: physicochemical
measurement-type: logP

- CN=C1C=CC(=C(c2ccc(N(C)C)cc2)c2ccc(N(C)C)cc2)C=C1: 4.5
- CCN(CC)c1ccc(/N=N/c2c(C#N)cc([N+](=O)[O-])cc2C#N)c(NC(C)=O)c1: 3.5
- COc1cc(/N=N/c2c(Br)cc([N+](=O)[O-])cc2[N+](=O)[O-])c(NC(C)=O)cc1N(CCOC(C)=O)CCOC(C)=O: 4.5
